Recorded measurements of glycan array binding signal (z-score), one per entry
Biological target: Fuc(a1-2)[GalNAc(a1-3)]Gal(b1-4)GlcNAc
Test: glycan array binding signal (z-score within array); higher = stronger binding
Conditions: glycan notation: IUPAC condensed, linker removed
Only a selection was taken, and the strongest signals are over-represented in it overall.
Reply with the value as a number alone.

# count of solved cases: 3
* GH98CBM (Clostridium perfringens) (protein) EVYALEESRDVYLSDLDWLNATHGDDTKSKIVQKNHPFTPGNNNQSTKISLKMEDGSISEFEKGLGTIAGSPSTITYDISGAGVTKFFSYLGIDRSANPINEQYAKVDKIEVVVDGKVIYSTINQFPNGLTYETPAIKVDLNIPENAKRLQLKSYAGEKTWGDEVVYADAKFTAKGDFVN | 8.52
* Mnn9-2N3 (Aspergillus fumigatus) (protein) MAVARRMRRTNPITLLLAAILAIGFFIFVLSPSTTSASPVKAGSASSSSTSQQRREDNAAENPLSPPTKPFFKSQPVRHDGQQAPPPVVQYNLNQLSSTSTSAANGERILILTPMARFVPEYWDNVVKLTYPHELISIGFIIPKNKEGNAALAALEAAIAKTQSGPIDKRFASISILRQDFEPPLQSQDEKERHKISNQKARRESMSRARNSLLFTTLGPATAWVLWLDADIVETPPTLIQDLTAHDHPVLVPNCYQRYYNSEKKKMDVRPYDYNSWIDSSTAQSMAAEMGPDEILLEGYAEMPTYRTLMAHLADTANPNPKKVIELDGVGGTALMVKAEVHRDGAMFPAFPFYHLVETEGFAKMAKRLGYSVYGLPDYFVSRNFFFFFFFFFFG | 0.402
* PfulAvr4 (Pseudocercospora fuligena) (protein) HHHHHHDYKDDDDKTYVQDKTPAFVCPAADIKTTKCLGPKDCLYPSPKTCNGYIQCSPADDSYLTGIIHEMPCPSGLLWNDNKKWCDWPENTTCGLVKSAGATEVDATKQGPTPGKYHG | -0.151

Next up:
Specify glycan array binding signal (z-score) for CBM32-4 (Clostridium perfringens), P26831 (protein) MGSSHHHHHHSSGLVPRGSHMASVYEPSLVDAYVGDDGAKKAVDGDLKTRVKFLGAPSTGDTIVYDLGQEILVDNLKYVVLDTEVDHVRDGKIQLSLDGETWTDAINIGDGVENGVDDMFSTPLKNGYKHGNQSGGIVPIDSAYVEGDNLNQKARYVRILFTAPYRHRWTVINELMINNGEYIPTVNDPT and stop. -0.266
